This section presents molecules with their documented IC50 values.
biological target: Cytochrome P450 2C9 (Homo sapiens, UniProt P11712); assay: Inhibition of recombinant human CYP2C9 using 7-methoxy-4-trifluoromethylcoumarin as substrate after 45 mins by fluorescence-based assay; format: ADME
Sequence (P11712 whole entry): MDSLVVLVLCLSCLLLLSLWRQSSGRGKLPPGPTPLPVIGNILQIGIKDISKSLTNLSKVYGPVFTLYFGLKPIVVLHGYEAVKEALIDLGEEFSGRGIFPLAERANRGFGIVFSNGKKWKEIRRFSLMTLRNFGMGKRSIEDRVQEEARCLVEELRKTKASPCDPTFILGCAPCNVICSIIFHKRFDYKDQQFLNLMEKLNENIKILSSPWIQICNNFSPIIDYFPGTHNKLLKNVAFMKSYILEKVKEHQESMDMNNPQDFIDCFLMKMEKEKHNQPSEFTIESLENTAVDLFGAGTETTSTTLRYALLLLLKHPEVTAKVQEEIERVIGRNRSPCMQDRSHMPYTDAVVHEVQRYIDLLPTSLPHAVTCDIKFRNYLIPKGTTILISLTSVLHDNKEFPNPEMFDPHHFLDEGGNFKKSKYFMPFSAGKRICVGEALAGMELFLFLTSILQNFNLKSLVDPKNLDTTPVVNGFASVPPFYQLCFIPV

[[record]]
compound_structure_string = "COc1ccc2c(c1)CCN(C(=O)CNCC1(O)CCCCC1)[C@H]2C(C)C"
readout_value = "> 50 µM"


Turning now to a further record.
For "COc1ccc2c(c1)CCN(C(=O)CNCC1(O)CCCCC1)[C@@H]2C(C)C" , write its IC50.
> 50 µM

* * *

molecules and their reported solubility
experiment: Aqueous solubility of the compound in Japanese Pharmacopoeia 1st fluid at pH 1.2; type: physicochemical

[[record]]
compound_structure_string = "COc1ccc2c(c1)CCN(C(=O)CNCC1(O)CCCCC1)[C@@H]2C(C)C"
readout_value = "> 100 µg/mL"


Lab note: next molecule to report on.
Report solubility for "COc1ccc2c(c1)CCN(C(=O)CNCC1(O)CCCCC1)[C@H]2C(C)C"
> 100 µg/mL

This collection of values is drawn from ChEMBL document CHEMBL3593157.
